Entry source: patent US20050239656A1

Each entry below carries its recorded Growth controlling degree (%) Soybean.
System: soybean
Assay: Test Example 1: foliage treatment, upland pot test
Assay type: in vivo, Glycine max Merr.
Conditions: crop, active ingredient 500 g/ha, observed 18th to 23rd day, 0 = non-treated, 100 = complete kill
Quick reminder: number only, in %, skip the unit.

The examples below pair each entry with its known result.
Query: Any idea what Growth controlling degree (%) Soybean came out for CC(C)C(c1cnccc1C(F)(F)F)N(C)C(=O)Cc1ccc(F)c(F)c1 (stereo not drawn) [I-60] on soybean?
Response: 35

Query: Further, for CC(C)C(c1cnccc1Cl)N(C)C(=O)Cc1cccc(F)c1 (stereo not drawn) [I-65] ?
Response: 20

Query: Further, for CC(C)C(c1cnccc1Cl)N(C)C(=O)Cc1c(F)cccc1F (stereo not drawn) [I-70] ?
Response: 30

Query: Further, for CC(C)C(c1cnccc1C(F)(F)F)N(C)C(=O)Cc1ccc(Cl)cc1Cl (stereo not drawn) [I-14] ?
Response: 20

New cases:
Query: Any idea what Growth controlling degree (%) Soybean came out for CC(C)C(c1cnccc1C(F)(F)F)N(C)S(=O)(=O)c1ccc(Cl)cc1 (racemic) [I-125] on soybean?
Response: 80

Query: Further, for CC(C)C(c1cnccc1C(F)(F)F)N(C)C(=O)C(Br)C(C)(C)C (stereo not drawn) [I-196] ?
Response: 40

Query: Further, for CC(C)C(c1cnccc1C(F)(F)F)N(C)C(=O)Cc1cc(F)ccc1F (stereo not drawn) [I-85] ?
Response: 80

Query: Further, for CC(C)C(c1cnccc1Cl)N(C)C(=O)Cc1ccc(F)cc1 (stereo not drawn) [I-67] ?
Response: 50

Query: Further, for Cc1ccc(OC(C)C(=O)N(C)C(c2cnccc2C(F)(F)F)C(C)C)cc1 (mixture of isomers) [I-131] ?
Response: 80
